Target: MAP3K19 (Homo sapiens, UniProt Q56UN5)
Sequence (Q56UN5 1-1328): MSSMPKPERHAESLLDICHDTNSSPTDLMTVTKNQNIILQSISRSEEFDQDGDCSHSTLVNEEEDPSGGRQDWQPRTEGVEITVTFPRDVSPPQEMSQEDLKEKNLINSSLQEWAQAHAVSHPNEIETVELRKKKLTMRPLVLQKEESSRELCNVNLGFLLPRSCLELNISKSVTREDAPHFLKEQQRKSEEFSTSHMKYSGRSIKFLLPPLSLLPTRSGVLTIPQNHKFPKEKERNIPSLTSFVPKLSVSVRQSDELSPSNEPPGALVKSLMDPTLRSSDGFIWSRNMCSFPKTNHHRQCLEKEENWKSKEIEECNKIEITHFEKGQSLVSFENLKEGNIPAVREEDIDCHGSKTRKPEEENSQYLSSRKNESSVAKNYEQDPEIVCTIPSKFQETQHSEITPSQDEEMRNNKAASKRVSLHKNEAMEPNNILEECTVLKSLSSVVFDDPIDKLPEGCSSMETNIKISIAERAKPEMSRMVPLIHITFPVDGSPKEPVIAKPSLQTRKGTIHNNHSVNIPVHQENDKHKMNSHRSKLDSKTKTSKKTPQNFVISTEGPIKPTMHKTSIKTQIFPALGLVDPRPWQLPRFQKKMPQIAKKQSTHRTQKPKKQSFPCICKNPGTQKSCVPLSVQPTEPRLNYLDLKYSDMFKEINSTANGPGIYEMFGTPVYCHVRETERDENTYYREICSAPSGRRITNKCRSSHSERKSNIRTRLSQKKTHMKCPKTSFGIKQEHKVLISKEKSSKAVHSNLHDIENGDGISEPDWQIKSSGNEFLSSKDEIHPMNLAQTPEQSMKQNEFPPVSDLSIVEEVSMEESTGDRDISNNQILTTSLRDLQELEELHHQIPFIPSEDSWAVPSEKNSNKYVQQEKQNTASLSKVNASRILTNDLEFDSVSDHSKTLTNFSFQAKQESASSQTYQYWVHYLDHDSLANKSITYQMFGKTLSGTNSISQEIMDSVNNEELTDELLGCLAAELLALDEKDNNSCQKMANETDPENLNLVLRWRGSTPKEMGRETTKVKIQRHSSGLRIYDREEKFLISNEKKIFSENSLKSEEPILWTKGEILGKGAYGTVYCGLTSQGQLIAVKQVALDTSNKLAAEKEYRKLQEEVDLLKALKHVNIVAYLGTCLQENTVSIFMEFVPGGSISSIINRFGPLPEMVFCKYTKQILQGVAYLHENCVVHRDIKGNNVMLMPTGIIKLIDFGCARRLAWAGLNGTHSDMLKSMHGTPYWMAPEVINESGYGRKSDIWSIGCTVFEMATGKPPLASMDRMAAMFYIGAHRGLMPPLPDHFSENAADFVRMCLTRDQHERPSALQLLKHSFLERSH
Observable: Kd (nM)
Response body: numeric value in nM, unit text excluded.

Exercise: Write down the reported Kd of Oc1ccc(C2=Cc3ccc(O)cc3OC2)cc1 , test system: MAP3K19 (Homo sapiens, UniProt Q56UN5).
Solution: 2200

---

target: TBK1 (TANK-binding kinase 1) (Homo sapiens)
Sequence (Q9UHD2 whole entry): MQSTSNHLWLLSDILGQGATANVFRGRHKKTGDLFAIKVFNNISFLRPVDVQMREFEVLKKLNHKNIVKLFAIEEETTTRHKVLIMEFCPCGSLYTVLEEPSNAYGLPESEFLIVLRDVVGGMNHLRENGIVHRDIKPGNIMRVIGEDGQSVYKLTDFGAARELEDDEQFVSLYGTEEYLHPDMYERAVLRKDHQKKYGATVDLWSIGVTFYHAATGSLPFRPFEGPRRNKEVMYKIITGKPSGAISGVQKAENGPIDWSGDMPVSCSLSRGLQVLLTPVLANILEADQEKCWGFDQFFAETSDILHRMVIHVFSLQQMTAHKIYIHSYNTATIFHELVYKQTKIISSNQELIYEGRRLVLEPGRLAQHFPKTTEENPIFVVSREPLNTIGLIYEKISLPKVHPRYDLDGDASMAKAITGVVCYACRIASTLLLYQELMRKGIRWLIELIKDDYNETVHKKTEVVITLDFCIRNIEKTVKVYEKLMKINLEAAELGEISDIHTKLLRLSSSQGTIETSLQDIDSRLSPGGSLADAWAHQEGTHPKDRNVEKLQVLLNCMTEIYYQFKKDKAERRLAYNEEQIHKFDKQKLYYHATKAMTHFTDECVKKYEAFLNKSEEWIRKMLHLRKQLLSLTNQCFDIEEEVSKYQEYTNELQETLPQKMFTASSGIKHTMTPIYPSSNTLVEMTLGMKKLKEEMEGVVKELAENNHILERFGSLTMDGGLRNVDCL
Observable: Kd (µM)
Numbers only here, please. The scale is µM.

Exercise: Query: Kd; subject: Oc1ccc(C2=Cc3ccc(O)cc3OC2)cc1 [compound 1, idronoxil]
Solution: 39.2

---

molecular target: DRAK1 (Homo sapiens)
Sequence (Q9UEE5 whole entry): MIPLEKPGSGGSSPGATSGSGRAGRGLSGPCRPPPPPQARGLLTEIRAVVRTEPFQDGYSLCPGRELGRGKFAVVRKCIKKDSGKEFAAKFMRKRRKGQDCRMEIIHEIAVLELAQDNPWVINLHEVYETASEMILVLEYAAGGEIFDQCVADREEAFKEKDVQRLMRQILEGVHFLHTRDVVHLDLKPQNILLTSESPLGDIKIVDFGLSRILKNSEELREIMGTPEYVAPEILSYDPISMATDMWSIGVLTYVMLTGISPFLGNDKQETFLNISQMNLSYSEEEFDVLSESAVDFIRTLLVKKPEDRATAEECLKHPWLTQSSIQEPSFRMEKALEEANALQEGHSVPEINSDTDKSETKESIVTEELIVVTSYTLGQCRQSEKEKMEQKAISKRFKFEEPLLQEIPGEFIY
Observable: pKd
Convention used: pKd is expressed as -log10 of the molar concentration.

Exercise: I have this compound here, Oc1ccc(C2=Cc3ccc(O)cc3OC2)cc1 , and I need its recorded pKd.
Solution: 5.92

---

molecular target: PIM2 (Homo sapiens, UniProt Q9P1W9)
Sequence (Q9P1W9 whole entry): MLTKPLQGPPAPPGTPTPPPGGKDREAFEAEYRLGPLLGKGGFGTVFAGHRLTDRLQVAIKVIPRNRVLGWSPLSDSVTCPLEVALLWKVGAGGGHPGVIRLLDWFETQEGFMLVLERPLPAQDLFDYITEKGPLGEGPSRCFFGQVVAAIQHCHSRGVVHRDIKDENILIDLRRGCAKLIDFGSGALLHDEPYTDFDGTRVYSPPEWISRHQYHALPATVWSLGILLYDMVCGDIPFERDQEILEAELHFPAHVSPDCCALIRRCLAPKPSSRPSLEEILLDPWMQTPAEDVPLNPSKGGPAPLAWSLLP
Observable: Kd (nM)
The figure you give is taken to be in nM; do not add the unit.

Exercise: Given Oc1ccc(C2=Cc3ccc(O)cc3OC2)cc1 , state its recorded Kd.
Solution: 2300

---

target: TAOK1 (Homo sapiens, UniProt Q7L7X3)
Sequence (Q7L7X3 whole entry): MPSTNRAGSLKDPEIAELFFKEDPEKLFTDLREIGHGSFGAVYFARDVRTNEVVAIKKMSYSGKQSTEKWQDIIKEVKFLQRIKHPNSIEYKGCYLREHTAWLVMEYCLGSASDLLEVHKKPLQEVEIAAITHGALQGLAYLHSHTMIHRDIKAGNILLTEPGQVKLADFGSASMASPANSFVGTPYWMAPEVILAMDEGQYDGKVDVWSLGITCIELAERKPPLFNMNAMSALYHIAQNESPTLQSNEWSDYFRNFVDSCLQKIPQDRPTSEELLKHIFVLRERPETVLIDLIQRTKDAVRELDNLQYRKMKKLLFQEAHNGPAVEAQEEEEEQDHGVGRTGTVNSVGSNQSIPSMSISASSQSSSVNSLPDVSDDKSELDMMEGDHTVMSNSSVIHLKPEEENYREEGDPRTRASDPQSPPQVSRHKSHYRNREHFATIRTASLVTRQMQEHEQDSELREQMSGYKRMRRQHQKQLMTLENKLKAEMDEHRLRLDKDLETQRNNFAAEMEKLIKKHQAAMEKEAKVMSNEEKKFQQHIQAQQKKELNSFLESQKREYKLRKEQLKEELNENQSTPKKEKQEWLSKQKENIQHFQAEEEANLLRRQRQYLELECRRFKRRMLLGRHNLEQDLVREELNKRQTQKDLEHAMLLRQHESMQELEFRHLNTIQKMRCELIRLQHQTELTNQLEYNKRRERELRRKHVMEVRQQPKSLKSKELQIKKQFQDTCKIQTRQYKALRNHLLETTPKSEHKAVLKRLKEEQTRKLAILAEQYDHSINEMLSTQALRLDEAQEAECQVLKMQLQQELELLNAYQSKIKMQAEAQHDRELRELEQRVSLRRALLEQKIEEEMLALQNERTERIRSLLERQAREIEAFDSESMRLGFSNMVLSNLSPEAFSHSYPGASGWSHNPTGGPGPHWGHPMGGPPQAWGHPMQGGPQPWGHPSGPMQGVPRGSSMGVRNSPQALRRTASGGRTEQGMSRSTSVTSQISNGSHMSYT
Observable: Kd (µM)
Numeric only. Scale: µM

Exercise: Record request: Kd value, item Oc1ccc(C2=Cc3ccc(O)cc3OC2)cc1 [compound 1, idronoxil]
Solution: 4.7
